Target: Renin (Homo sapiens, UniProt P00797)
Experiment: Inhibition of trypsin-activated human recombinant renin
ATTRIBUTE_MEASURED: IC50 (nM)

Check out these entries, answers already filled in.
SMILES_STRING	ATTRIBUTE_MEASURED	MEASURED_NUMBER
CNC[C@H](CC1CCCCC1)NC(=O)N1CCC[C@@H]([C@@](O)(CCCNC(=O)NC)c2cccc(Cl)c2)C1	IC50	46
CCCC(=O)NCCC[C@@](O)(c1cccc(Cl)c1)[C@@H]1CCCN(C(=O)N[C@H](CNC)CC2CCCCC2)C1	IC50	57

(P) CNC[C@H](CC1CCCCC1)NC(=O)N1CCC[C@@H]([C@@](O)(CCCNC(=O)C2CC2)c2cccc(Cl)c2)C1
(Q) CNC[C@H](CC1CCCCC1)NC(=O)N1CCC[C@@H]([C@@](O)(CCCNS(C)(=O)=O)c2cccc(Cl)c2)C1
(R) CNC[C@H](CC1CCCCC1)NC(=O)N1CCC[C@@H]([C@@](O)(CCCNS(N)(=O)=O)c2cccc(Cl)c2)C1
(S) CNC[C@H](CC1CCCCC1)NC(=O)N1CCC[C@@H]([C@@](O)(CCCNC(N)=O)c2cccc(Cl)c2)C1
(T) CNC[C@H](CC1CCCCC1)NC(=O)N1CCC[C@@H]([C@@H](OCCNC(=O)OC)c2cc(F)cc(F)c2)C1
# input # desc sort on IC50 across 5 compounds Form entry: labels listed in requested order.
# output Q, R, S, P, T

* * *

Molecular target: Renin (Homo sapiens, UniProt P00797)
Sequence (P00797 whole entry): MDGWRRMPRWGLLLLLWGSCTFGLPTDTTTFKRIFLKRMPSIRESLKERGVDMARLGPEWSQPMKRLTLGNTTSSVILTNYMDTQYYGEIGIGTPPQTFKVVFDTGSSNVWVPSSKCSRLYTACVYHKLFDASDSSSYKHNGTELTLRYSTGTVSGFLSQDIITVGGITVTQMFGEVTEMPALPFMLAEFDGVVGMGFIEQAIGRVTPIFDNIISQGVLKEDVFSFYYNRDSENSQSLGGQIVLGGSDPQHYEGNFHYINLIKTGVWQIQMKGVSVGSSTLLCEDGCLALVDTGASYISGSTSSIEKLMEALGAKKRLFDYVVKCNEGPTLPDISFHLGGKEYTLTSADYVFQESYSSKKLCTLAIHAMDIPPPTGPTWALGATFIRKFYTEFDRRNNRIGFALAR
Assay: Inhibition of trypsin-activated human recombinant renin
ATTRIBUTE_MEASURED: IC50 (nM)

SMILES_STRING	IC50 (nM)
CNC[C@H](CC1CCCCC1)NC(=O)N1CCC[C@@H]([C@@H](OCCNC(=O)OC)c2ccc(F)c(F)c2)C1	2.5
CNC[C@H](CC1CCCCC1)NC(=O)N1CCC[C@@H]([C@@H](OCCNC(=O)OC)c2cc(Cl)ccc2F)C1	0.62

(1) CNC[C@H](CC1CCCCC1)NC(=O)N1CCC[C@@H]([C@@H](OCCNC(=O)OC)c2cc(F)cc(Cl)c2)C1
(2) CCNC[C@H](CC1CCCCC1)NC(=O)N1CCC[C@@H]([C@@H](OCCNC(=O)OC)c2cccc(F)c2)C1
# input Select one: 1 or 2 . Criterion: greater recorded IC50. Reply with the label of the item you choose.
# output 2
